method: Plasma pharmacokinetics (LC–MS/MS, non-compartmental analysis)
Format: in vivo, Japanese patients
conditionNotes: human, plasma, oral, 800 mg, Cycle 1 Day 28; 800 mg qd; n = 3; read-out: Tmax, Median
endpointLabel: Tmax

Input line: Recorded Tmax of Cn1c(=O)n(-c2ccc(C(C)(C)C#N)cc2)c2c3cc(-c4cnc5ccccc5c4)ccc3ncc21 , please.
Output line: 2 h

----------
method: Plasma pharmacokinetics (LC–MS/MS, non-compartmental analysis)
Format: in vivo, Japanese patients
conditionNotes: human, plasma, oral, 1000 mg, Cycle 1 Day 28; 1000 mg qd; n = 4; read-out: AUClast, Median
endpointLabel: AUC(0-t) (ng·h/mL)
Answer in ng·h/mL, number only, no unit symbol.

Input line: Recorded AUC(0-t) of Cn1c(=O)n(-c2ccc(C(C)(C)C#N)cc2)c2c3cc(-c4cnc5ccccc5c4)ccc3ncc21 , please.
Output line: 4800
